Where these numbers come from: ChEMBL document CHEMBL1201862

# System: Malme-3M
# protocolDetails: NCI tumour cell line growth inhibition, 48 h
Active and inactive are the calls of the source. Rule as the data show it: active = GI50 up to about 1.1 µM and inactive = higher.
measuredParameter: GI50

> print(dat)
                                   molecule    system               result
1  Cc1ccc(N(C(=O)Nc2ccccc2)C2=NCC(C)S2)cc1C (stereo unspecified)  Malme-3M   20.3 µM (inactive)
2  CCn1c(=O)nc2n(-c3ccc(SC)cc3)c3ccccc3nc-2c1=O  Malme-3M  > 100 µM (inactive)
3       CCOc1ccccc1N1CSc2nnc(-c3ccccc3)n2C1  Malme-3M  > 100 µM (inactive)
4  O=c1sc(-c2nc3ccccc3[nH]2)c(/N=C/c2ccccc2)n1-c1ccccc1  Malme-3M   92.7 µM (inactive)
5  COC(=O)[C@]1(C)C(OC)=CC(=O)C2C1[C@H]1CCC[C@@H]21 (stereo partly specified)  Malme-3M  > 100 µM (inactive)
6  COc1cccc2c1C(=O)c1ccc3cc(CCl)cc(O)c3c1C2=O  Malme-3M    0.188 µM (active)

* * *

# Test system: SNB-19
# protocolDetails: NCI tumour cell line growth inhibition, 48 h
The source made the active and inactive calls. Rule as the data show it: active = GI50 up to about 1.1 µM and inactive = higher.
Readings of GI50 for the listed molecules
measuredParameter: GI50

> print(dat)
                                    molecule  measuredparameter                result
 1  COC(=O)CCC(=O)C(CC(=O)OC)C(=O)CCC(=O)NCCc1ccccc1 (stereo not drawn)               GI50   > 100 µM (inactive)
 2  COc1nc(NC2OCC(OC(C)=O)C(OC(C)=O)C2OC(C)=O)c(/N=C(\C)C(C)=O)c(=O)n1C (stereo not drawn)               GI50   > 100 µM (inactive)
 3     Cc1cc2c(c(C(N)=O)c1C)-c1cccc(F)c1C2=O               GI50   > 100 µM (inactive)
 4  O=C1C=C(c2ccccc2)OC1C1Sc2ccccc2NC1=O (stereo not drawn)               GI50    4.08 µM (inactive)
 5  O=C1C(Cl)C2(CC(/C=C/c3ccccc3O)=NN2c2cccc(S(=O)(=O)O)c2)N1c1nc2ccccc2s1 (stereo not drawn)               GI50    30.8 µM (inactive)
 6  CC(=O)OC12c3ccccc3-c3ccccc3C1C(C(=O)O)C2(Cl)C(=O)O (stereo not drawn)               GI50    > 10 µM (inactive)
 7   CC(Oc1ccccc1)C(=O)NN (stereo not drawn)               GI50   > 100 µM (inactive)
 8  Cc1cn([C@H]2C=C[C@@H](CO)O2)c(=O)[nH]c1=O               GI50  > 1000 µM (inactive)
 9  O=c1sc(-c2nc3ccccc3[nH]2)c(/N=C/c2ccccc2)n1-c1ccccc1               GI50    53.7 µM (inactive)
10  COC1OCC(O)C(NC(=O)N(C)N=O)C1O (stereo not drawn)               GI50   > 100 µM (inactive)
11           CN(C)CCN(C)CCC(=O)/C=C/c1ccccc1               GI50  > 93.3 µM (inactive)
12  CC(NNC(=O)c1cc[n+]([BH2-]C#N)cc1)C(F)(F)F (stereo not drawn)               GI50   > 100 µM (inactive)
13         CNC(=O)CCCN(C)C(=O)CCCCC(=O)N(C)C               GI50  > 60.1 µM (inactive)
14  CC1c2c(Cl)nc3ccccc3c2Oc2c1c(Cl)nc1ccccc21               GI50   > 100 µM (inactive)
15    O=c1[nH]c2c(O)cccc2c2cc3c(c(O)c12)OCO3               GI50    13.6 µM (inactive)
16  C=CCC(N(C)C(=O)[C@H](Cc1ccccc1)NC(=O)OCc1ccccc1)P(=O)(Oc1ccccc1)Oc1ccccc1 (stereo partly drawn)               GI50   > 100 µM (inactive)
17  OC12c3ccccc3C3CCC4(OCCO4)C3C1c1ccccc12 (stereo not drawn)               GI50   > 100 µM (inactive)
18  NCCN1C(=O)c2ccccc2C1(O)c1ccc(Cl)cc1 (stereo not drawn)               GI50    23.1 µM (inactive)
19                        NN(CC(=O)O)CC(=O)O               GI50   > 100 µM (inactive)
20           O=S(=O)(O)c1c(Cl)cc(O)c2ncccc12               GI50   > 100 µM (inactive)
21  COC(=O)C1CCC(=O)N1C(c1ccc2c(c1)OCO2)c1ccc2c(c1)OCO2 (stereo not drawn)               GI50   > 100 µM (inactive)
22  COc1cc(C(=O)C/C(CCC(=O)Nc2ccccc2[N+](=O)[O-])=N\NC(=O)C(N)=O)ccc1O               GI50   > 100 µM (inactive)
23  Cc1onc(-c2c(F)cccc2Cl)c1C(=O)N[C@@H]1C(=O)N2[C@@H]1SC(C)(C)[C@@H]2C(=O)O               GI50   > 100 µM (inactive)
